# MEASURED_TARGET: Broad substrate specificity ATP-binding cassette transporter ABCG2 (Homo sapiens) (UniProt Q9UNQ0)
# Sequence (Q9UNQ0 whole entry, looked up): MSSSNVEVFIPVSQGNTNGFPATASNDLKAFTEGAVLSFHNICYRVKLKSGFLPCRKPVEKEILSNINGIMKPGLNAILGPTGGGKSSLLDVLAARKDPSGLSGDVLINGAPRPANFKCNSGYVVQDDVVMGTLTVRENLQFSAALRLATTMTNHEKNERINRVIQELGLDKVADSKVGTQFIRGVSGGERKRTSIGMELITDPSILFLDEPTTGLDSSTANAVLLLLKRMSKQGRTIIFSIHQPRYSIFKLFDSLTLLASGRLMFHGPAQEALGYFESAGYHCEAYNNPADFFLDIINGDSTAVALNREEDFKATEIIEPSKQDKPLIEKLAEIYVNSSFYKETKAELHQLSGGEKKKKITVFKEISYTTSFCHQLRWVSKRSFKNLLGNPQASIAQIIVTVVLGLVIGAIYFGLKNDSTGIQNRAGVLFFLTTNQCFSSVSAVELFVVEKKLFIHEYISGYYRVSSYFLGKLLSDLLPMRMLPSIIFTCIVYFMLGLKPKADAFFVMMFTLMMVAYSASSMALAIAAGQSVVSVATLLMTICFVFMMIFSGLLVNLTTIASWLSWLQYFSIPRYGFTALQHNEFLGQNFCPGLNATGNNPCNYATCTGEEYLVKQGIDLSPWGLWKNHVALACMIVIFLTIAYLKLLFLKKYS
# EXPERIMENT_NOTES: ABCG2 efflux pump inhibitors, primary screen, multiplex with ABCB1, IgMXP3 cells, flow cytometry (AID 1325);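 note: 0% = DMSO and 100% = nicardipine control wells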
# CONDITION_NOTES: JC-1 efflux, at 6.6 µM, hits give high values
Out of some 190,000 compounds screened, about 200 (0.11%) were called active. For the sample, actives were picked, then their nearest neighbours and some compounds at random.

{"RECORD_SMILES": "O=C(COc1ccc(S(=O)(=O)N2CCCCC2)cc1)NCc1ccccn1", "inhibition": "1.47% (inactive)"}
{"RECORD_SMILES": "CN(C)C(=O)c1cccn(Cc2cccc(C(F)(F)F)c2)c1=O", "inhibition": "-0.69% (inactive)"}
{"RECORD_SMILES": "O=S(=O)(Nc1ccccn1)c1cccc(S(=O)(=O)c2ccc(Cl)cc2)c1", "inhibition": "-0.57% (inactive)"}
{"RECORD_SMILES": "C=CCn1c(-c2sc(-c3ccccc3)nc2C)n[nH]c1=S", "inhibition": "1.76% (inactive)"}
{"RECORD_SMILES": "Cc1c(Cl)cnc(NC(=O)COC(=O)c2ccc(S(=O)(=O)NCc3ccco3)cc2)c1Cl", "inhibition": "-0.23% (inactive)"}
{"RECORD_SMILES": "O=C(NC1CCN(Cc2ccccc2)CC1)c1cc(Br)c(Br)[nH]1", "inhibition": "4.52% (inactive)"}
{"RECORD_SMILES": "CC(C)(C)C(=O)CN1C2=NCCN2c2ccccc21", "inhibition": "2.76% (inactive)"}
{"RECORD_SMILES": "CCn1nc(C)c(/C=N/NC(=O)Cc2ccc(Cl)cc2)c1C", "inhibition": "9.46% (inactive)"}
{"RECORD_SMILES": "COc1cccc(/C(C)=N/Nc2ncc(Cl)cc2Cl)c1", "inhibition": "16.5% (inactive)"}
{"RECORD_SMILES": "O=C(/C=C/c1ccc([N+](=O)[O-])cc1)NCCSCc1ccco1", "inhibition": "54.6% (inactive)"}
{"RECORD_SMILES": "CCc1ccc(NC(=O)c2ccc(Cn3cc([N+](=O)[O-])cn3)cc2)cc1", "inhibition": "1.22% (inactive)"}

---

Collected inhibition values appear next to each entry.
# MEASURED_TARGET: Broad substrate specificity ATP-binding cassette transporter ABCG2 (Homo sapiens) (UniProt Q9UNQ0)
# EXPERIMENT_NOTES: ABCG2 efflux pump inhibitors, primary screen, multiplex with ABCB1, IgMXP3 cells, flow cytometry (AID 1325);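 note: 0% = DMSO and 100% = nicardipine control wells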
# CONDITION_NOTES: JC-1 efflux, at 6.6 µM, hits give high values
The campaign covered roughly 190,000 compounds. About 200 (0.11%) were called active. Many of the other results were omitted from the sample, so actives are more common in it than they were.
READOUT_NAME: inhibition (%)

{"MOLECULE": "CCOC(=O)c1ccc(NC(=S)Nc2cc(C)cc(C)n2)cc1", "OBS_VALUE": 11.7}
{"MOLECULE": "CCN(CC)c1ccc([N+](=O)[O-])cc1C(=O)O", "OBS_VALUE": 3.47}
{"MOLECULE": "CC(=O)N1CCc2cc(Br)cc(S(=O)(=O)CCC(=O)Nc3c(C)n(C)n(-c4ccccc4)c3=O)c21", "OBS_VALUE": -0.95}
{"MOLECULE": "C[N+]1(CC(O)COc2ccccc2)CCN(C(=O)c2ccc([N+](=O)[O-])cc2)CC1 (stereo not drawn)", "OBS_VALUE": 4.9}
{"MOLECULE": "Cc1ccc(C)c(NS(=O)(=O)c2ccc(OCC(=O)NCc3cccnc3)cc2)c1", "OBS_VALUE": 0.12}
{"MOLECULE": "CCC1=NN(C(=O)Cc2ccc([N+](=O)[O-])cc2)C(O)(c2ccc(Br)cc2)C1 (stereo not drawn)", "OBS_VALUE": 5.42}
{"MOLECULE": "O=C(/C=C/c1cccc([N+](=O)[O-])c1)NCCSCc1ccco1", "OBS_VALUE": 51.1}
{"MOLECULE": "Cc1ccc2c(CC(=O)NCc3cccs3)coc2c1", "OBS_VALUE": 9.43}
{"MOLECULE": "CCN1CCN(C(=O)CN(C)S(=O)(=O)c2ccc3ccccc3c2)CC1", "OBS_VALUE": 0.1}
{"MOLECULE": "Cc1cc(C)n(CC(O)CN(c2ccccc2)S(=O)(=O)c2ccc3ccccc3c2)n1 (stereo not drawn)", "OBS_VALUE": 16.1}
{"MOLECULE": "COC(=O)c1ccc(CSc2nncn2N)cc1", "OBS_VALUE": -1.84}
{"MOLECULE": "O=C(Nc1ccc(C(=O)O)cc1)/C(=C/c1ccc([N+](=O)[O-])cc1)NC(=O)c1ccccc1", "OBS_VALUE": 2.36}
{"MOLECULE": "Cc1ccc(N2C(=O)SC(N(CC(=O)O)c3ccc(C)cc3)C2=O)cc1 (stereo not drawn)", "OBS_VALUE": 1.16}
{"MOLECULE": "Cc1ccc(S(=O)(=O)NCCc2nnc3ccc(SCc4cccnc4)nn23)cc1", "OBS_VALUE": 0.68}
{"MOLECULE": "COc1cccc(NC(=O)CC(c2ccc(OC(C)C)cc2)c2ccccc2OC)c1 (stereo not drawn)", "OBS_VALUE": 10.9}
{"MOLECULE": "O=C(NCc1ccccn1)c1cc(Br)ccc1Cl", "OBS_VALUE": 2.2}
{"MOLECULE": "O=C1OCC2=C1C(c1ccccc1)CC(=O)N2c1cccc(F)c1 (stereo not drawn)", "OBS_VALUE": 10.8}
{"MOLECULE": "C=CCC1(CC=C)CCCN1C(=O)CC1C(=O)NCCN1Cc1ccccc1OC (stereo not drawn)", "OBS_VALUE": 4.22}
{"MOLECULE": "O=C(CSc1ccc(-c2ccco2)nn1)NCc1ccc2c(c1)OCO2", "OBS_VALUE": 0.73}
{"MOLECULE": "O=C(NC1CC1)C1CCCN(C(=O)NC2CCCCC2)C1 (stereo not drawn)", "OBS_VALUE": 6.29}
{"MOLECULE": "Cc1nc(N)c(Br)c(C)c1Br", "OBS_VALUE": 2.8}
{"MOLECULE": "CN(C)c1nnnn1-c1ccc(Cl)cc1", "OBS_VALUE": 1.39}
{"MOLECULE": "COc1ccccc1NC(=O)c1c(Br)cnn1C", "OBS_VALUE": 9.25}

---

Collected inhibition values appear next to each entry.
# MEASURED_TARGET: Broad substrate specificity ATP-binding cassette transporter ABCG2 (Homo sapiens) (UniProt Q9UNQ0)
# EXPERIMENT_NOTES: ABCG2 efflux pump inhibitors, primary screen, multiplex with ABCB1, IgMXP3 cells, flow cytometry (AID 1325);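 note: 0% = DMSO and 100% = nicardipine control wells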
# CONDITION_NOTES: JC-1 efflux, at 6.6 µM, hits give high values
In all, about 190,000 compounds went through this assay and about 200 (0.11%) were called active. The list comes from a sample in which actives are over-represented; it also holds close analogues and randomly drawn compounds.
READOUT_NAME: inhibition (%)

{"MOLECULE": "Cc1ncc([N+](=O)[O-])n1CCOC(=O)c1ccc(Br)cc1", "READOUT_NAME": "inhibition", "OBS_VALUE": 9.29}
{"MOLECULE": "COc1ccc(CN2CCCC(C(=O)c3ccc(Cl)cc3)C2)cc1Cn1cncn1 (configuration not stated)", "READOUT_NAME": "inhibition", "OBS_VALUE": 2.66}
{"MOLECULE": "Cc1c(Cl)cccc1NC(=S)N(Cc1ccccc1)Cc1cccnc1", "READOUT_NAME": "inhibition", "OBS_VALUE": 3.04}
{"MOLECULE": "CCCCc1ccc(S(N)(=O)=O)cc1", "READOUT_NAME": "inhibition", "OBS_VALUE": 3.23}
{"MOLECULE": "Cc1ccc2c(c1)C(O)(CC(=O)c1cccc(-n3cccc3)c1)C(=O)N2 (configuration not stated)", "READOUT_NAME": "inhibition", "OBS_VALUE": 16.3}
{"MOLECULE": "CCOc1cc(/C=N/NC(=O)c2ccc(CSc3nncn3C)cc2)ccc1OCC(=O)N1CCOCC1", "READOUT_NAME": "inhibition", "OBS_VALUE": -0.51}
{"MOLECULE": "COc1ccc(-n2c(C)cc(C(=O)CSc3nnc(-c4cccs4)o3)c2C)cc1", "READOUT_NAME": "inhibition", "OBS_VALUE": 4.95}
{"MOLECULE": "O=C(Cc1csc(Nc2nc(=S)[nH]c3ccccc23)n1)NCCCN1CCN(c2cccc(Cl)c2)CC1", "READOUT_NAME": "inhibition", "OBS_VALUE": 3.5}
{"MOLECULE": "COc1ccccc1CN(C)c1nnnn1-c1ccccc1", "READOUT_NAME": "inhibition", "OBS_VALUE": -0.06}
{"MOLECULE": "CCOC(=O)c1c(NC(=O)c2ccc(Br)o2)sc2c1CCCC2", "READOUT_NAME": "inhibition", "OBS_VALUE": 14.6}
{"MOLECULE": "COc1ccc(C)cc1NC(=S)Nc1ccccc1SC", "READOUT_NAME": "inhibition", "OBS_VALUE": 0.21}
{"MOLECULE": "CC(CNC(=O)c1ccc(N)cc1)NC(=O)c1ccc(N)cc1 (configuration not stated)", "READOUT_NAME": "inhibition", "OBS_VALUE": -4.01}
{"MOLECULE": "COc1ccc(C)cc1NC(=O)Nc1ccccc1SC", "READOUT_NAME": "inhibition", "OBS_VALUE": 13.2}
{"MOLECULE": "CCOc1ccc(C(CC(=O)O)NC(=O)C23CC4CC(CC(C4)C2)C3)cc1OC (configuration not stated)", "READOUT_NAME": "inhibition", "OBS_VALUE": -1.01}
{"MOLECULE": "Cc1c(Cc2ccccc2)c(=O)oc2cc(OCC(N)=O)ccc12", "READOUT_NAME": "inhibition", "OBS_VALUE": 0.67}
{"MOLECULE": "CC(CNc1ccc([N+](=O)[O-])c2cccnc12)Nc1c([N+](=O)[O-])cc(C(F)(F)F)cc1[N+](=O)[O-] (configuration not stated)", "READOUT_NAME": "inhibition", "OBS_VALUE": 23.1}
{"MOLECULE": "Cc1ccc(NS(=O)(=O)c2cccs2)cc1S(=O)(=O)N1CCCCCC1", "READOUT_NAME": "inhibition", "OBS_VALUE": 0.74}
{"MOLECULE": "CCc1nnc(NC(=O)CSc2nc(SC)ns2)s1", "READOUT_NAME": "inhibition", "OBS_VALUE": 1.21}
{"MOLECULE": "COc1ccc(CNC(=O)CN(Cc2ccc(Cl)cc2)S(C)(=O)=O)cc1", "READOUT_NAME": "inhibition", "OBS_VALUE": 3.97}
{"MOLECULE": "CC(=O)NC1C(Oc2ccc(C=O)cc2)OC(COC(C)=O)C(OC(C)=O)C1OC(C)=O (configuration not stated)", "READOUT_NAME": "inhibition", "OBS_VALUE": 0.63}
{"MOLECULE": "NNc1nc2c(Cl)cccc2s1", "READOUT_NAME": "inhibition", "OBS_VALUE": -11.1}
{"MOLECULE": "COc1ccccc1-c1nnc(NC(=O)c2ccc3ncsc3c2)o1", "READOUT_NAME": "inhibition", "OBS_VALUE": -4.46}

These measurements were taken from PubChem BioAssay AID1325.
